target: T1, human c-Met (Sino Biological) (human, UniProt P08581 25-932, limits assumed); assay: derived from the Biacore KD, printed 'Average' 3.52 x10^-10 M divided by the KD
T1 construct: Analyte in the Biacore assay; also called antigen (c-Met); printed as "human c-Met antibody (Sino Biological, Beijing, China)"
T1 sequence (P08581 25-932 limits assumed): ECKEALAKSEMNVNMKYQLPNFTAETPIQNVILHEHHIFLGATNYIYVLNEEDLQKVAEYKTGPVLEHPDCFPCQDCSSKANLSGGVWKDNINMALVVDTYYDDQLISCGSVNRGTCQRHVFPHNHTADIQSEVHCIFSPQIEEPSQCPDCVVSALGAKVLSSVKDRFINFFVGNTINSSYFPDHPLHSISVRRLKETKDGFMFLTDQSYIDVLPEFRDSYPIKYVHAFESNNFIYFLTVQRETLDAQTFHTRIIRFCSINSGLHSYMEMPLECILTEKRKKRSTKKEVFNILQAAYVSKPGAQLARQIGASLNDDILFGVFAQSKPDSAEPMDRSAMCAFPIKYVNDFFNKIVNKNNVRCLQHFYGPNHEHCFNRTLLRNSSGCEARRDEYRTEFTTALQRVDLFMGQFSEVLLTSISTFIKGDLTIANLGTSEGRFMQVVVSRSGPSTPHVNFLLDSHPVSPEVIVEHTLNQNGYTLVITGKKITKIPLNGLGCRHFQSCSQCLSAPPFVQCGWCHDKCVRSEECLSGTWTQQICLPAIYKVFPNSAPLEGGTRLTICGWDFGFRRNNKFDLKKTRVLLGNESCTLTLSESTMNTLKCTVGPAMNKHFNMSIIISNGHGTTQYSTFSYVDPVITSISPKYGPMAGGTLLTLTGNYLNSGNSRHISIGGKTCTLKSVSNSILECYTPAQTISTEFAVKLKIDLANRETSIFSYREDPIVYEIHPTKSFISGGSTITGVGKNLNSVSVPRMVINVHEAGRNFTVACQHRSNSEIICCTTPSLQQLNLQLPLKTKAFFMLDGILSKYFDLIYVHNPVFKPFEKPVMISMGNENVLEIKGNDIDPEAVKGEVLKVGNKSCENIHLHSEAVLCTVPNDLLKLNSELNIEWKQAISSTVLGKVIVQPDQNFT
readout.label: Index 1 (binding affinity, inverse KD relative to the Average 3.52)

binder="VH2/Vk2 (antibody, IgG1, V domains shown, Full IgG1/kappa expressed in HEK 293 EBNA cells) VH: EVQLVQSGAEVKKPGESLKISCKGSGYSFPTHWITWVRQMPGKGLEWMGTIDPTDSYNFYGPSFQGQVTISADKSISTAYLQWSSLKASDTAMYYCARDGNYYDSRGYYYDTFDMWGQGTLVTVSS VL: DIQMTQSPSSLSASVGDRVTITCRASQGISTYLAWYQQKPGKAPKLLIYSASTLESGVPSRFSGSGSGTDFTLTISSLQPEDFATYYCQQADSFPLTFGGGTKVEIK" result_value=0.701
